Source: patent US4180669A

List of inhibition in vivo at 50 mg/kg values.
Test system: pylorous ligated rats
PROTOCOL_NOTES: Antisecretory activity in the pylorous ligated rat model
Type: in vivo, male Sprague-Dawley rats
ASSAY_CONDITIONS: Rattus norvegicus, 4 h; oral dose 50 mg/kg; negative sign means stimulated; read-out: Percent inhibition of pepsin output
Where a name gives a salt, the structure may show the parent alone.
REPORTED_PROPERTY: inhibition in vivo at 50 mg/kg

[[record]]
compound = "CCCCCC(C)C(C)c1cc(O)c(C2CCN(C)CC2)c(O)c1 (centres unmarked) [XVII, hydrochloride]"
val = "40.6%"

[[record]]
compound = "CCCCCC(C)C(C)c1cc(O)c(C2=CCN(C)CC2)c(OC)c1 (centres unmarked) [Example XXVI, hydrochloride]"
val = "8.6%"

[[record]]
compound = "CCCCCc1cc(O)c(C2CC3CCC(C2)N3C)c(O)c1 (centres unmarked) [XXIV, hydrochloride]"
val = "22.2%"

[[record]]
compound = "CCCCCC(C)C(C)c1cc(O)c(C2=CCN(Cc3ccccc3)CC2)c(O)c1.Cl (centres unmarked) [Example XIV, hydrochloride]"
val = "52.4%"

[[record]]
compound = "CCCCCc1cc(O)c(C2=CCN(C)CC2)c(O)c1 [Example VIII, hydrochloride]"
val = "55.9%"

[[record]]
compound = "CCCCCC(C)C(C)c1cc(O)c(C2=CC3CCC(C2)N3C)c(O)c1 (centres unmarked) [Example XXV, hydrochloride]"
val = "11%"

[[record]]
compound = "CC(C)c1cc(O)c(C2=CCN(Cc3ccccc3)CC2)c(O)c1 [Example XI, hydrochloride]"
val = "47.1%"

[[record]]
compound = "CCCCCC(C)C(C)c1cc(O)c(C2=CCN(C)CC2)c(O)c1 (centres unmarked)"
val = "48%"


====

List of inhibition in vivo at 12.5 mg/kg values.
Test system: pylorous ligated rats
PROTOCOL_NOTES: Antisecretory activity in the pylorous ligated rat model
Assay type: in vivo, male Sprague-Dawley rats
ASSAY_CONDITIONS: Rattus norvegicus, 4 h; oral dose 12.5 mg/kg; read-out: Percent inhibition of volume
Where a name gives a salt, the structure may show the parent alone.
REPORTED_PROPERTY: inhibition in vivo at 12.5 mg/kg (%)

[[record]]
molecule = "CCCCCC(C)C(C)c1cc(O)c(C2=CCN(CCc3ccccc3)CC2)c(O)c1 (centres unmarked) [Example XX, hydrochloride]"
reported_property = "inhibition in vivo at 12.5 mg/kg"
val = 2.6

[[record]]
molecule = "CCCCCc1cc(O)c(C2CCN(CCc3ccccc3)CC2)c(O)c1 [Example XXI, hydrochloride]"
reported_property = "inhibition in vivo at 12.5 mg/kg"
val = 6.5

[[record]]
molecule = "CCCCCC(C)C(C)c1cc(O)c(C2=CCN(Cc3ccccc3)CC2)c(O)c1.Cl (centres unmarked) [Example XIV, hydrochloride]"
reported_property = "inhibition in vivo at 12.5 mg/kg"
val = -5.9

[[record]]
molecule = "CCCCCC(C)C(C)c1cc(O)c(C2=CCN(C)CC2)c(O)c1 (centres unmarked) [Example X]"
reported_property = "inhibition in vivo at 12.5 mg/kg"
val = -2.8

[[record]]
molecule = "CC(C)c1cc(O)c(C2=CCN(C)CC2)c(O)c1.Cl [Example VI, hydrochloride]"
reported_property = "inhibition in vivo at 12.5 mg/kg"
val = 49.8


====

System: pylorous ligated rats
PROTOCOL_NOTES: Antisecretory activity in the pylorous ligated rat model
Assay type: in vivo, male Sprague-Dawley rats
ASSAY_CONDITIONS: Rattus norvegicus, 4 h; oral dose 50 mg/kg; read-out: Percent inhibition of volume
Where a name gives a salt, the structure may show the parent alone.
Use Condition met when the recorded inhibition in vivo at 50 mg/kg is no lower than 40%; use Condition not met when it is lower.

[[record]]
compound = "CCCCCC(C)C(C)c1cc(O)c(C2=CC3CCC(C2)N3C)c(O)c1 (centres unmarked) [Example XXV, hydrochloride]"
assigned_class = "Condition not met"

[[record]]
compound = "CCCCCc1cc(O)c(C2=CCN(CCc3ccccc3)CC2)c(O)c1 [Example XIX, hydrochloride]"
assigned_class = "Condition not met"

[[record]]
compound = "CCCCCC(C)C(C)c1cc(O)c(C2CCNCC2)c(OC)c1 (centres unmarked) [Example XXX, hydrochloride]"
assigned_class = "Condition not met"

[[record]]
compound = "CCCCCC(C)C(C)c1cc(O)c(C2=CCN(C)CC2)c(OC)c1 (centres unmarked) [Example XXVI, hydrochloride]"
assigned_class = "Condition not met"

[[record]]
compound = "CCCCCC(C)C(C)c1cc(O)c(C2CCN(CCc3ccccc3)CC2)c(O)c1 (centres unmarked) [Example XXII, hydrochloride]"
assigned_class = "Condition not met"

[[record]]
compound = "CCCCCC(C)C(C)c1cc(O)c(C2=CCN(CCc3ccccc3)CC2)c(O)c1 (centres unmarked) [Example XX, hydrochloride]"
assigned_class = "Condition met"

[[record]]
compound = "CCCCCC(C)C(C)c1cc(O)c(C2CCNCC2)c(O)c1 (centres unmarked) [Example XVI, hydrochloride]"
assigned_class = "Condition not met"

[[record]]
compound = "CCCCCC(C)C(C)c1cc(O)c(C2=CCN(Cc3ccccc3)CC2)c(O)c1.Cl (centres unmarked) [Example XIV, hydrochloride]"
assigned_class = "Condition met"

[[record]]
compound = "CC(C)c1cc(O)c(C2=CCN(C)CC2)c(O)c1.Cl [Example VI, hydrochloride]"
assigned_class = "Condition met"

[[record]]
compound = "CCCCCC(C)C(C)c1cc(O)c(C2=CCNCC2)c(O)c1 (centres unmarked) [Example XV, hydrochloride]"
assigned_class = "Condition not met"

[[record]]
compound = "CC(C)c1cc(O)c(C2=CCN(C(C)C)CC2)c(O)c1 [XIII, hydrochloride]"
assigned_class = "Condition not met"

[[record]]
compound = "CCCCCc1cc(O)c(C2=CCN(C)CC2)c(O)c1 [Example VIII, hydrochloride]"
assigned_class = "Condition met"

[[record]]
compound = "CCCCCc1cc(O)c(C2CCN(C)CC2)c(O)c1 [XVIII, hydrochloride]"
assigned_class = "Condition not met"

[[record]]
compound = "CCCCCc1cc(O)c(C2CC3CCC(C2)N3C)c(O)c1 (centres unmarked) [XXIV, hydrochloride]"
assigned_class = "Condition not met"

[[record]]
compound = "CC(C)c1cc(O)c(C2=CCN(Cc3ccccc3)CC2)c(O)c1 [Example XI, hydrochloride]"
assigned_class = "Condition met"

[[record]]
compound = "CCCCCC(C)C(C)c1cc(O)c(C2=CCN(C)CC2)c(O)c1 (centres unmarked)"
assigned_class = "Condition not met"

[[record]]
compound = "CC(C)c1cc(O)c(C2=CCNCC2)c(O)c1 [XII, hydrochloride]"
assigned_class = "Condition not met"

[[record]]
compound = "CC(C)C(C)c1cc(O)c(C2=CCN(C)CC2)c(O)c1 (centres unmarked) [Example VII, hydrochloride]"
assigned_class = "Condition not met"

[[record]]
compound = "CCCCCc1cc(O)c(C2CCN(CCc3ccccc3)CC2)c(O)c1 [Example XXI, hydrochloride]"
assigned_class = "Condition met"

[[record]]
compound = "CCCCCC(C)C(C)c1cc(O)c(C2CCN(C)CC2)c(O)c1 (centres unmarked) [XVII, hydrochloride]"
assigned_class = "Condition not met"


====

Test system: pylorous ligated rats
PROTOCOL_NOTES: Antisecretory activity in the pylorous ligated rat model
Type: in vivo, male Sprague-Dawley rats
ASSAY_CONDITIONS: Rattus norvegicus, 4 h; oral dose 100 mg/kg; read-out: Percent inhibition of pepsin output
Protocol: To determine the antisecretory activity of the present compounds, the compounds were tested for such activity in pylorous ligated rats. In this test, male Sprague-Dawley rats weighing 170-190 g. were fasted for 24 hours. Water was allowed ad libitum. All groups were comprised of six rats. […] The samples were centrifuged and the volume, less debris, was measured. […] Pepsin activity was determined on an auto analyzer using hemoglobin as the substrate by the method of Anson. […]
Structures can show the parent of a compound that is named as a salt.
List of inhibition in vivo at 100 mg/kg values.
REPORTED_PROPERTY: inhibition in vivo at 100 mg/kg (%)

[[record]]
molecule = "CCCCCC(C)C(C)c1cc(O)c(C2=CCNCC2)c(O)c1 (stereo not shown) [Example XV, hydrochloride]"
system_tested = "pylorous ligated rats"
reported_property = "inhibition in vivo at 100 mg/kg"
val = 41.4

[[record]]
molecule = "CCCCCC(C)C(C)c1cc(O)c(C2=CCN(C)CC2)c(O)c1 (stereo not shown)"
system_tested = "pylorous ligated rats"
reported_property = "inhibition in vivo at 100 mg/kg"
val = 63.2

[[record]]
molecule = "CC(C)c1cc(O)c(C2=CCN(C)CC2)c(O)c1.Cl [Example VI, hydrochloride]"
system_tested = "pylorous ligated rats"
reported_property = "inhibition in vivo at 100 mg/kg"
val = 53.3

[[record]]
molecule = "CCCCCc1cc(O)c(C2CCN(CCc3ccccc3)CC2)c(O)c1 [Example XXI, hydrochloride]"
system_tested = "pylorous ligated rats"
reported_property = "inhibition in vivo at 100 mg/kg"
val = 60.6

